biological target: Aβ40 (amyloid β-protein, monomer) (Homo sapiens, UniProt P05067)
Sequence (P05067 672-711 limits assumed): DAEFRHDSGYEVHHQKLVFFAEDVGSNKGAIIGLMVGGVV
PROPERTY_MEASURED: pKd
The value called pKd is obtained by taking minus log10 of the concentration in mol/L.

## Task Record request: pKd value, item COc1ccc(/C=C/C(=O)Nc2ccccc2C(=O)O)cc1OC [tranilast]
## Result 3.51
